test system: DLD-1 colon; assay: NCI tumour cell line growth inhibition, 48 h
measurement_name: TGI

> print(dat)
                                   molecule    result
1  CC(C)N(C(=O)C12C3C4C1C1C2C3C41C(=O)N(C(C)C)C(C)C)C(C)C (stereo not given)   > 50 µM
2  C=C1C=CC2(Br)OC3CC(C)(Cl)C(Br)CC13C2(C)C (stereo not given)  > 100 µM
3    CN(C)C(F)=PC(F)(F)F (stereo not given)  > 100 µM
4  O=C(Cc1ccccc1)C(c1ccccc1)S(=O)(=O)c1ccccc1 (stereo not given)  > 100 µM
5  COC(=O)CCC(NC(=S)N/N=C(\C)c1cnccn1)C(=O)OC (stereo not given)  > 100 µM
6  CC(C)=CC(=O)OC1C2C(C)=CC(O)C(O)C2(C)C2C3(O)OCC24C(CC(=O)OC14)C(C)C3O (stereo not given)  0.485 µM
7         Nc1n[nH]c(CCCCCCCc2nc(N)n[nH]2)n1  > 100 µM
8  C#CCNC(=O)NC(CCCCNC(=O)OCc1ccccc1)C(=O)OCc1ccccc1 (stereo not given)  > 100 µM

Would you mind listing TGI for each of the following molecules?
1. CC(=O)[CH-]C(C)=O.CC(=O)[CH-]C(C)=O.CC(=O)[CH-]C(C)=O.[Ga+3]
2. O=C(O)C12CC3CC(CC(F)(C3)C1)C2

A)
1: > 100 µM; 2: > 100 µM

----------
Kindly supply the reported TGI values for the records listed here.
tested on: MALME-3M melanoma; assay: NCI tumour cell line growth inhibition, 48 h

Before answering, review these 2 worked examples.
> print(dat)
                                   molecule  measurement.name    result
1  O=C(O)Cc1cccc2c(=O)c3cccc([N+](=O)[O-])c3[nH]c12               TGI   97.6 µM
2  COC(=O)[C@@]1(NC(=O)C(CC(=O)OC(C)(C)C)NC(=O)OC(C)(C)C)C[C@H]1C (stereo partly drawn)               TGI  > 100 µM

I would be grateful if you could provide TGI for each of the following entries.
1. O=C(O)C12CC3CC(CC(F)(C3)C1)C2
2. Nc1nc2ncn(CC(O)CO)c2c(=O)[nH]1 (stereo not drawn)
3. CC1=NNC(=S)NCCCN2CCN(CCCNC(=S)NN=C(C)C=NNC(=S)NCCCN3CCN(CCCNC(=S)NN=C1)CC3)CC2
4. COc1ccc(S(=O)(=O)N2CCNCC2)cc1OC
5. c1ccc(C2CCCCC2)c(OCCCCCN2CCNCC2)c1
6. c1ccc2cc3c(cc2c1)OP1(Oc2cccc4cccnc24)(O3)Oc2cc3ccccc3cc2O1

A)
1. > 100 µM
2. > 100 µM
3. > 100 µM
4. > 100 µM
5. 3.57 µM
6. > 76.8 µM

----------
test system: OVCAR-3 ovarian; assay: NCI tumour cell line growth inhibition, 48 h
For each entry below, report its TGI value.

Record excerpt, results attached:
compound	TGI
N#C/C(=C1\OC(=N)C(c2ccc(Cl)cc2Cl)C1=O)c1ccc(Cl)cc1Cl (centres undefined)	> 100 µM
CC(=O)O[C@@H]1[C@H]2[C@@H](OC(=O)c3ccccc3)[C@@H](C)C[C@]2(O)[C@H](OC(C)=O)[C@@]2(C)[C@@H]3C[C@@](C)(OC(C)=O)C[C@@H](OC(C)=O)[C@@]3(OC(C)=O)C[C@@]12C	> 10 µM
COc1ccc(/C=C/c2cc(OC)c(OCc3ccccc3)c(OC)c2)cc1	> 100 µM
O=C(NCCCCCCCN1CCCCCCC1)C(C1CCCCC1)C1CCCCC1	18.6 µM
Cc1cc2c(c(=O)o1)C1=S(SC(c3ccccc3)=C1)S2 (centres undefined)	75.2 µM

State the recorded TGI for every item in the following list.
1. O=C1/C(=C/c2cccs2)NC(=S)N1CN1CCCCC1
2. N#C/C(=C\c1cc2ccc(N3CCC3)cc2oc1=O)C(=O)N(CC(=O)O)CC(=O)O
3. O=[N+]([O-])C(=C/c1cccc2ccccc12)/C(=C\c1cccc2ccccc12)[N+](=O)[O-]
4. COc1ccc(S(=O)(=O)N2CCNCC2)cc1OC
5. Nc1nc2c(ncn2CCCC(c2ccccc2)P(=O)(O)O)c(=O)[nH]1 (centres undefined)
6. COC(=O)c1ccc(C=C(C#N)C#N)cc1
7. O=C(O)Cc1cccc2c(=O)c3cccc([N+](=O)[O-])c3[nH]c12

A)
["> 100 µM", "> 100 µM", "15.5 µM", "> 100 µM", "> 100 µM", "67.5 µM", "> 100 µM"]

Each compound below has a recorded value; state its TGI.
1. CCN1C[C@]2(C)CC[C@H](OC)C34C5C[C@@H]6[C@@H](OC)C[C@@](OC)(C5[C@H]6OCc5ccccc5)C(C13)[C@H](OC(C)=O)[C@@H]42 (some centres undefined)
2. Cc1c(C2=NN=C(N=Nc3c(O)cccc3O)/C2=C/c2ccccc2)c(=O)n(-c2ccccc2)n1C
3. CC(C)N(Cc1ccc(F)cc1)c1ccc(CO)c(Cl)c1

A)
> 100 µM
> 100 µM
0.623 µM

Below are some compounds; for each one, tell me its TGI.
1. CN(C)CCCn1c2c(c3cc4c(cc3c1=O)OCO4)C(=O)c1ccccc1-2
2. O=c1[nH]c2nc[nH]c2c(=O)n1C1CCCCC1

A)
["6.46 µM", "> 100 µM"]

Hi there! I need TGI for each item below, if you can.
1. O=S(=O)(O)c1ccc2cc3nn(-c4ccc(/C=C/c5ccc(-n6nc7cc8ccc(S(=O)(=O)O)cc8cc7n6)cc5S(=O)(=O)O)c(S(=O)(=O)O)c4)nc3cc2c1
2. O/N=C1/CCCc2nonc21

A)
1. > 100 µM
2. > 100 µM

Below is a list of compounds. For each, state its recorded TGI.
1. Cc1ccc(Cl)cc1-n1c(C)nc2c(cnn2-c2ccnc3c(C(F)(F)F)cccc23)c1=O
2. CN1CCC/C1=C1/C(=O)N(c2ccccc2)N=C1c1ccc[nH]1

A)
1: > 100 µM; 2: > 100 µM

Please report TGI for every entry that follows.
1. CCOC(=O)/C=C/C1(CCOC(C)=O)CCCCC1
2. NCc1ccc(-c2nc(-c3ccc(Cl)c(O)c3)c(-c3ccncc3)[nH]2)cc1
3. c1ccc(-c2csc3ncn4cnnc4c23)cc1
4. C[P+]1(c2ccccc2)CCCCC1
5. Nc1n[nH]c(CCCCCCCc2nc(N)n[nH]2)n1

A)
1. > 10 µM
2. > 25 µM
3. > 100 µM
4. > 100 µM
5. > 100 µM

I would be grateful if you could provide TGI for each of the following entries.
1. Cc1ccc(-n2c(-c3cc4c([nH]c5ccccc54)c(-c4cccc(O)c4)n3)n[nH]c2=S)cc1
2. O=S(=O)(O)c1ccc2cc(N=Nc3c(O)ccc4ccccc34)ccc2c1
3. N#Cc1cccc(Nc2ncc(-c3ccccc3)o2)c1

A)
1: 1.86 µM; 2: > 100 µM; 3: > 25 µM
